- System: L1210 leukemia ip in BDF1 mice, survival T/C
- Method Description: NCI In Vivo Anticancer Drug Screen. Data for tumor model L1210 Leukemia (intraperitoneal) in B6D2F1 (BDF1) mice
- Conditions: endpoint: mean survival time; dose: 100.0 mg/kg/injection; schedule: Q01DX009 (ip); vehicle: saline with Tween-80; higher = longer survival
Toxic doses and inconclusive results are not listed.
Reported Metric: T/C

>  <Compound>
COC(=O)c1ccc2oc(=O)cc(C)c2c1O

>  <Recorded Value>
95 % of control

$$$$
>  <Compound>
C=CC(C)(O)C(C)(C)C (stereo not given)

>  <Recorded Value>
96 % of control

$$$$
>  <Compound>
CSc1ccc(OC(=O)Nc2ccc(C)c([N+](=O)[O-])c2)cc1C

>  <Recorded Value>
89 % of control

$$$$
>  <Compound>
CCCNC(=O)Oc1cccc(NC(=O)CC)c1

>  <Recorded Value>
92 % of control

$$$$
>  <Compound>
CC1CCCCC1O (stereo not given)

>  <Recorded Value>
102 % of control

$$$$

====

- System: L1210 leukemia ip in BDF1 mice, survival T/C
- Method Description: NCI In Vivo Anticancer Drug Screen. Data for tumor model L1210 Leukemia (intraperitoneal) in B6D2F1 (BDF1) mice
- Conditions: endpoint: mean survival time; dose: 400.0 mg/kg/injection; schedule: Q04DX003 (ip); vehicle: saline with Tween-80; higher = longer survival
Inconclusive results and toxic doses are left out.
Known T/C of a selection of molecules
Reported Metric: T/C

>  <Molecule>
CC(=O)OCc1cccnc1

>  <Recorded Value>
97 % of control

$$$$
>  <Molecule>
COc1ccc2c(c1)C(CO)c1ccc(Cl)cc1N2 (stereo not drawn)

>  <Recorded Value>
94 % of control

$$$$
>  <Molecule>
COCCNC(=O)NS(=O)(=O)c1ccc(C)cc1

>  <Recorded Value>
96 % of control

$$$$
>  <Molecule>
OC(C(c1ccccc1)c1ccccn1)(C(F)(F)F)C(F)(F)F (stereo not drawn)

>  <Recorded Value>
97 % of control

$$$$
>  <Molecule>
c1ccc([Si](c2ccccc2)(c2ccccc2)c2ccc3ccccc3c2)cc1

>  <Recorded Value>
87 % of control

$$$$
>  <Molecule>
ClC1(Cl)Cc2ccccc21

>  <Recorded Value>
98 % of control

$$$$
>  <Molecule>
O=C1CCCc2ccc(Br)cc21

>  <Recorded Value>
99 % of control

$$$$
>  <Molecule>
COc1cc(/C=N/Nc2ccc([N+](=O)[O-])cc2)cc(OC)c1OC

>  <Recorded Value>
86 % of control

$$$$
>  <Molecule>
CC(C)OCCS(=O)(=O)Oc1ncc(Cl)cc1Cl

>  <Recorded Value>
94 % of control

$$$$
>  <Molecule>
CCCCCCCCC(=O)Nc1cccc(O)c1

>  <Recorded Value>
96 % of control

$$$$
>  <Molecule>
COc1ccc(/C=N/CCl)cc1

>  <Recorded Value>
96 % of control

$$$$
>  <Molecule>
O=C(O)c1cc(C(=O)O)cc(S(=O)(=O)F)c1

>  <Recorded Value>
99 % of control

$$$$
>  <Molecule>
CCOc1ccc(NC(=O)CCCCCCCCC(=O)Nc2ccc(OCC)cc2)cc1

>  <Recorded Value>
91 % of control

$$$$
>  <Molecule>
S=c1oc2cccc3c2n1CCC3

>  <Recorded Value>
97 % of control

$$$$
>  <Molecule>
O=C1c2ccccc2C2C(=O)c3ccccc3C12 (stereo not drawn)

>  <Recorded Value>
95 % of control

$$$$
>  <Molecule>
COc1ccc(/C=C(\C#N)c2ccc(C)cc2)cc1OC

>  <Recorded Value>
100 % of control

$$$$
>  <Molecule>
CCOC(=O)c1ccc(NC(=O)C(Br)C(Br)C(=O)O)cc1 (stereo not drawn)

>  <Recorded Value>
101 % of control

$$$$
>  <Molecule>
Cc1ncc(C(=O)c2ccccc2)n1Cc1ccccc1

>  <Recorded Value>
90 % of control

$$$$
>  <Molecule>
O=C1OC(=O)C2C3CC(C12)C1C2C=CC(C2)C31 (stereo not drawn)

>  <Recorded Value>
103 % of control

$$$$
>  <Molecule>
O=C(O)c1c(Cl)cccc1Cl

>  <Recorded Value>
95 % of control

$$$$
>  <Molecule>
COc1ccc(NC(=O)Nc2cc(Cl)ccc2Cl)cc1

>  <Recorded Value>
92 % of control

$$$$
>  <Molecule>
O=C1c2ccccc2CCCC1N1CCOCC1 (stereo not drawn)

>  <Recorded Value>
87 % of control

$$$$
>  <Molecule>
CCCCOC(c1ccc2c(c1)OCO2)C(C)Br (stereo not drawn)

>  <Recorded Value>
97 % of control

$$$$
>  <Molecule>
O=C1CC(=O)c2ccccc21

>  <Recorded Value>
93 % of control

$$$$
>  <Molecule>
N#CC(C#N)=C1c2ccccc2C(=O)c2ccccc21

>  <Recorded Value>
87 % of control

$$$$
>  <Molecule>
Cc1ccc(Nc2ccc(Nc3ccc(C)cc3)c3c2C(=O)c2ccccc2C3=O)cc1

>  <Recorded Value>
92 % of control

$$$$
>  <Molecule>
CCOC(=O)CN=C(C)OCC

>  <Recorded Value>
103 % of control

$$$$
>  <Molecule>
O=C(Nc1ccccc1-c1ccc([N+](=O)[O-])cc1)c1cccc2ccccc12

>  <Recorded Value>
90 % of control

$$$$
>  <Molecule>
CCCCCCCCCCCCCCCCC(C(=O)OCC)C(=O)c1ccccc1 (stereo not drawn)

>  <Recorded Value>
91 % of control

$$$$
>  <Molecule>
CCNC(=O)Nc1ccc(N(CC)CC)cc1

>  <Recorded Value>
96 % of control

$$$$
>  <Molecule>
Cc1ccc(Cl)cc1NC(=O)Nc1ccc(N(C)C)cc1

>  <Recorded Value>
89 % of control

$$$$
>  <Molecule>
OC(CCCCC(O)(c1ccccc1)c1ccccc1)(c1ccccc1)c1ccccc1

>  <Recorded Value>
96 % of control

$$$$
>  <Molecule>
CCOC(=O)c1cc2sccc2[nH]1

>  <Recorded Value>
93 % of control

$$$$
>  <Molecule>
COP(=O)(OC)C(OC(=O)C(C)C)=C(C)C

>  <Recorded Value>
102 % of control

$$$$
>  <Molecule>
CN(C(=O)/C=C/C(=O)O)c1ccccc1

>  <Recorded Value>
97 % of control

$$$$
>  <Molecule>
Cc1ccc2c(c1)CC=CO2

>  <Recorded Value>
98 % of control

$$$$
>  <Molecule>
CC1(C)C(=O)C2(C(=O)O)CCC1C2 (stereo not drawn)

>  <Recorded Value>
88 % of control

$$$$
>  <Molecule>
CCCCCCCCCCCCOc1ccc(C)cc1

>  <Recorded Value>
93 % of control

$$$$

====

- Test system: L1210 leukemia ip in BDF1 mice, survival T/C
- Method Description: NCI In Vivo Anticancer Drug Screen. Data for tumor model L1210 Leukemia (intraperitoneal) in B6D2F1 (BDF1) mice
- Conditions: endpoint: mean survival time; dose: 100.0 mg/kg/injection; schedule: Q01DX001 (ip); vehicle: saline; higher = longer survival
Toxic doses and inconclusive results are not listed.
Below is a list of entries, each paired with its recorded T/C value.

>  <Compound>
O=C(NO)c1ccccc1F

>  <T/C>
97 % of control

$$$$
>  <Compound>
CN(C)C1C(=O)C(C(N)=O)=C(O)C2(O)C(=O)C3=C(O)c4c(O)cccc4C(C)(O)C3C(O)C12 (stereo unspecified)

>  <T/C>
90 % of control

$$$$
>  <Compound>
CC(=O)c1ccc(N=NC2C(=O)N(c3ccccc3)N=C2C)cc1 (stereo unspecified)

>  <T/C>
96 % of control

$$$$
>  <Compound>
CC(=O)OCCN1CCN(CCCN2c3ccccc3Sc3ccc(C(F)(F)F)cc32)CC1

>  <T/C>
106 % of control

$$$$
>  <Compound>
C=C1C(=O)OC2CCC(O)C12 (stereo unspecified)

>  <T/C>
105 % of control

$$$$
>  <Compound>
Cc1ccc(N2CCCC(=O)C(O)CCC2)cc1 (stereo unspecified)

>  <T/C>
98 % of control

$$$$
>  <Compound>
NC(=O)NNC1=CC(=O)CCO1

>  <T/C>
107 % of control

$$$$
>  <Compound>
CC(=O)c1ccc(OC(=O)C(C)(C)C)cc1

>  <T/C>
97 % of control

$$$$
>  <Compound>
CCCCCCCCC[As](=O)(O)CCCCCCCCC

>  <T/C>
98 % of control

$$$$
>  <Compound>
Cc1nc2ncnc(Cl)c2[nH]1

>  <T/C>
103 % of control

$$$$
>  <Compound>
CCOc1nc(Cl)nc2nc[nH]c12

>  <T/C>
102 % of control

$$$$
>  <Compound>
O=C1C(O)=C(c2ccccc2)C(=O)C(O)=C1c1ccccc1

>  <T/C>
96 % of control

$$$$
>  <Compound>
O=S(=O)(Cc1ccccc1)Cc1ccccc1

>  <T/C>
95 % of control

$$$$
>  <Compound>
COc1cc([N+](=O)[O-])cc2c(C)cc(=O)[nH]c12

>  <T/C>
95 % of control

$$$$
>  <Compound>
C=CCNCC=C

>  <T/C>
96 % of control

$$$$
>  <Compound>
Cc1ccc(S(=O)(=O)OCCN(CCOS(=O)(=O)c2ccc(C)cc2)c2ccc(N=O)cc2)cc1

>  <T/C>
124 % of control

$$$$

The values you see were collected from PubChem BioAssay AID248.
